Source of measurements: the RNAGym collection of RNA variant scans (doi:10.1073/pnas.2313332121)

B1: TPR t1 (parent)
chain: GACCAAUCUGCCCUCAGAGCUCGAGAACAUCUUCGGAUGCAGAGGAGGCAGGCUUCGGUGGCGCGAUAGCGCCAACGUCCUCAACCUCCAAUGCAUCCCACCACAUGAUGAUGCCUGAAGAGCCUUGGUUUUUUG

Variants of: B1
Assay: polymerase ribozyme fitness, log enrichment relative to wild type (log ratio); higher = more active; in vitro selection for triplet polymerase activity
Each record's polymerase ribozyme fitness (log ratio) is compared with L (below -3), M (-3 to below -1), H (-1 or more) to give its class.

mutation name	answer label
G61A C114A	H
U81C C85U A118G G122U C124U U129A	L
U54A G113U C114G A121C	M
A6G C22U A43C G45U C94A C124A	L
C15G C72U A100U	L
A50G C64U A84U	H

## Input Category of C88A G117U :
## Output M

## Input Category of C15G A24G C89G C124G :
## Output L

## Input Category of A46C C62U U106G :
## Output M

## Input Category of C40U :
## Output H

## Input Category of C80U U109C :
## Output L

## Input Category of A2G U78A G128A :
## Output M

## Input Category of U78G C86U :
## Output H

## Input Category of G10U G47A :
## Output H
